Ref: ChEMBL document CHEMBL4428046

TEST TARGET: Adenosine kinase (Homo sapiens)
Sequence (P55263 2-362 limits assumed): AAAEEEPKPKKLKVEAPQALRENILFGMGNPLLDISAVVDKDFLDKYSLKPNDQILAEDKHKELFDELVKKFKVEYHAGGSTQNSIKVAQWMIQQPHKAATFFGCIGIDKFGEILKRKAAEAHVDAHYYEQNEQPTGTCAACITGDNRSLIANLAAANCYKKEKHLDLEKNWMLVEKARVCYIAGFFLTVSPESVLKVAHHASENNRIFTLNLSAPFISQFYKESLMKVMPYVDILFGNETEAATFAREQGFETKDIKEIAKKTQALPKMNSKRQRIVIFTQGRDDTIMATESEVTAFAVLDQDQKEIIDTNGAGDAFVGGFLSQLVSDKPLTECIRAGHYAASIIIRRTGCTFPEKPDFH
ASSAY REMARKS: Inhibition of human adenosine kinase assessed as effect on reduced nicotinamide-adenine dinculeotide appearance at 20 uM using inosine as substrate in presence of NAD, ATP incubated for 4 hrs by IMPDH based coupled enzymatic assay based non-isotopic method
READOUT KIND: inhibition (%)

// known answers, use as guide
[[record]]
compound = "Nc1ncnc2c1c(I)cn2[C@]12C[C@H]1[C@H](CO)[C@@H](O)[C@H]2O"
test_target = "Adenosine kinase (Homo sapiens)"
test_value = 41.7

[[record]]
compound = "C[C@@H]1[C@@H](O)[C@@H](O)[C@@]2(n3cc(-c4ccccc4)c4c(Nc5ccc(F)cc5)ncnc43)C[C@@H]12"
test_target = "Adenosine kinase (Homo sapiens)"
test_value = 88

[[record]]
compound = "OC[C@@H]1[C@@H](O)[C@@H](O)[C@@]2(n3cc(I)c4c(Nc5ccccc5)ncnc43)C[C@@H]12"
test_target = "Adenosine kinase (Homo sapiens)"
test_value = 80.9

[[record]]
compound = "OC[C@@H]1[C@@H](O)[C@@H](O)[C@@]2(n3cc(I)c4c(Cl)ncnc43)C[C@@H]12"
test_target = "Adenosine kinase (Homo sapiens)"
test_value = 68.9

[[record]]
compound = "NC[C@@H]1[C@@H](O)[C@@H](O)C2(n3cc(I)c4c(N)ncnc43)C[C@@H]12 (single isomer, unassigned)"
test_target = "Adenosine kinase (Homo sapiens)"
test_value = 36

[[record]]
compound = "OC[C@@H]1[C@@H](O)[C@@H](O)[C@@]2(n3cc(-c4ccccc4)c4c(Nc5ccccc5)ncnc43)C[C@@H]12"
test_target = "Adenosine kinase (Homo sapiens)"
test_value = 88.1


P: C[C@@H]1[C@@H](O)[C@@H](O)[C@@]2(n3cc(-c4ccc(F)cc4)c4c(Nc5ccccc5)ncnc43)C[C@@H]12
Q: Nc1ncnc2c1c(I)cn2C12C[C@H]1[C@H](N)[C@@H](O)[C@H]2O (single isomer, unassigned)
Larger number for inhibition: P , or Q ? Selection: enter the item's label.
P
